protocol-summary: Human HepG2 cell viability assay in 384 well format
Format: toxicity, cell-based
Set-up: dose 125 nL, time 70.5 hour; concentration not given beside the values
conditions-used: HepG2 cells, read-out: Inhibition
Would you kindly list cytotoxicity at 70.5 h for each of these compounds?
Numeric only. Scale: %

Sure, the documented cytotoxicity at 70.5 h for Cc1cc(CN2CCCC2c2noc(C(C)C)n2)on1 (stereo unspecified) is -15.4

Sure, the documented cytotoxicity at 70.5 h for CNC(=O)[C@@H]1C[C@H]2CN(Cc3csc(C)n3)C[C@H]2N1C(C)C is -4.84

Sure, the documented cytotoxicity at 70.5 h for CNC(=O)Cc1ccc(NC(=O)NCC(C)c2ncc(C)s2)cc1 (stereo unspecified) is -12.5

Sure, the documented cytotoxicity at 70.5 h for Cc1ccc(N2CCCc3sc(C(=O)NCCO)nc32)nn1 is -1.7

Sure, the documented cytotoxicity at 70.5 h for CCN1CCN(C(=O)CCC2CCN(C(C)CSC)CC2)CC1 (stereo unspecified) is 3.5

Sure, the documented cytotoxicity at 70.5 h for CCn1nc(C)c(CNC(=O)NCC(C)(O)c2ccco2)c1C (stereo unspecified) is -1.92

Sure, the documented cytotoxicity at 70.5 h for CCc1cnc(N2CCC3(CC(=O)N(Cc4csc(C)n4)C3)C2)nc1 (stereo unspecified) is -12

Sure, the documented cytotoxicity at 70.5 h for CN(Cc1ccco1)[C@@H]1CN(CC2CCOCC2)[C@@H]2CCCO[C@H]12 is -11.5

Sure, the documented cytotoxicity at 70.5 h for Cc1nc(C)c(Cn2ccnc2-c2cc(CN(C)C)cs2)s1 is 2.87

Sure, the documented cytotoxicity at 70.5 h for Cc1nc(C)n(CC2CCCN(CC(=O)Nc3ccncc3)C2)n1 (stereo unspecified) is -5.01

Sure, the documented cytotoxicity at 70.5 h for c1coc(CN2CCC3(CC2)COC(COCC2CC2)C3)c1 (stereo unspecified) is 15.1

Sure, the documented cytotoxicity at 70.5 h for O=C1CCC2(CCCN(C(=O)C3CCCC3)C2)CN1CCc1c[nH]cn1 (stereo unspecified) is -2.97

Sure, the documented cytotoxicity at 70.5 h for Cc1ccoc1C(=O)NCC(Cc1ccc(F)cc1)C(N)=O (stereo unspecified) is -3.51

Sure, the documented cytotoxicity at 70.5 h for Cn1ccc2c(cnc3nc(-c4ccncc4)nn32)c1=O is -7.69

Sure, the documented cytotoxicity at 70.5 h for COc1ncccc1CN1CC[C@H]2[C@H]1CCN2CCN(C)C is -1.63

Sure, the documented cytotoxicity at 70.5 h for COCc1cn(C2CCN(C(=O)c3ccc(F)c(C)c3)CC2)nn1 is -6.36

Sure, the documented cytotoxicity at 70.5 h for Fc1ccc(OCCCNC2=NCCN2)cc1 is -14.3

Sure, the documented cytotoxicity at 70.5 h for N#Cc1cccc(NC2CC(=O)N(Cc3ccccc3Cl)C2)n1 (stereo unspecified) is 18.9

Sure, the documented cytotoxicity at 70.5 h for COc1cc(CNCCC(N)=O)c2c(c1)CC(C)O2 (stereo unspecified) is -0.966

Sure, the documented cytotoxicity at 70.5 h for Cc1cc2c(c(=O)n1CCC(=O)O)C=CC(C)(C)O2 is -2.47

Sure, the documented cytotoxicity at 70.5 h for CCNC(=O)[C@@H]1C[C@H](N)CN1c1cc(CC)nc(N(C)C)n1 is -4.05

Sure, the documented cytotoxicity at 70.5 h for Cc1ccc(CC(=O)N2CCCC(c3nccs3)C2)cn1 (stereo unspecified) is -4.34

Sure, the documented cytotoxicity at 70.5 h for CCOc1ccc(Br)cc1C1CCCCN1 (stereo unspecified) is -12.6

Sure, the documented cytotoxicity at 70.5 h for c1ccc(-c2nc(CCNC3CCOC4(CCOCC4)C3)no2)cc1 (stereo unspecified) is -8.69

Sure, the documented cytotoxicity at 70.5 h for CSc1ccc(NCC(=O)NCC2CC2)cc1F is -3.73

Sure, the documented cytotoxicity at 70.5 h for Cc1noc(C2CCCN(C(=O)c3ccc(F)cc3F)C2)n1 (stereo unspecified) is -8.76

---

Would you kindly list cytotoxicity at 70.5 h for each of these compounds?
protocol-summary: Human HepG2 cell viability assay in 384 well format
Type: toxicity, cell-based
Design: dose 125 nL, time 70.5 hour; concentration not given beside the values
conditions-used: HepG2 cells, read-out: Inhibition
Numeric only. Scale: %

Sure, the documented cytotoxicity at 70.5 h for CCN(C)c1ccc(C(=O)N(CCOC)Cc2ccccn2)cc1 is 14.7

Sure, the documented cytotoxicity at 70.5 h for CNC(=O)[C@@H]1C[C@H]2CN(Cc3ccc(C)o3)C[C@H]2N1C(C)=O is -0.0424

Sure, the documented cytotoxicity at 70.5 h for CCCn1cc(Cl)c(C(=O)N2C[C@H]3C[C@H](OC)C[C@H]3C2)n1 is 3.23

Sure, the documented cytotoxicity at 70.5 h for CN(C)c1ccc(CC2CCN(c3cnccn3)CC2)nn1 is -7.84

---

protocol-summary: Human HepG2 cell viability assay in 384 well format
Type: toxicity, cell-based
Set-up: dose 125 nL, time 70.5 hour; concentration not given beside the values
conditions-used: HepG2 cells, read-out: Inhibition
observed-property: cytotoxicity at 70.5 h (%)
Numeric only. Scale: %

Sure, the documented cytotoxicity at 70.5 h for CC(c1cc(F)ccc1F)N(C)Cc1nc2c(cnn2C)c(=O)[nH]1 (stereo not drawn) is 10.4

Sure, the documented cytotoxicity at 70.5 h for Cc1cccc(-c2nc(CNC3CCc4nc(C)nn4C3)no2)c1 (stereo not drawn) is -3.36

Sure, the documented cytotoxicity at 70.5 h for CCc1nc(CS(=O)(=O)Cc2noc(C3CC3)n2)cs1 is -1.78

---

protocol-summary: Human HepG2 cell viability assay in 384 well format
Assay type: toxicity, cell-based
Design: dose 125 nL, time 70.5 hour; concentration not given beside the values
conditions-used: HepG2 cells, read-out: Inhibition
Would you kindly list cytotoxicity at 70.5 h for each of these compounds?
Numeric only. Scale: %

Sure, the documented cytotoxicity at 70.5 h for Cc1ccc(NC(C)(C)c2nnnn2-c2ccc(Cl)cc2)c(C)c1 is 0.988

Sure, the documented cytotoxicity at 70.5 h for CC(C)c1ccn(C2(C(=O)O)CCN(c3cc(C(N)=O)ccn3)CC2)n1 is -3.6

Sure, the documented cytotoxicity at 70.5 h for O=C1OCCN1CCNC(=O)C1(N2CCCCC2)Cc2ccccc2C1 is -7.56

Sure, the documented cytotoxicity at 70.5 h for CO[C@H]1C[C@@H](O)C12CCN(C(=O)CCSCc1ccc(F)cc1)CC2 is -18.7

Sure, the documented cytotoxicity at 70.5 h for CC(C)CC(=O)N1CC[C@@H]2[C@H](CC1)N(S(C)(=O)=O)CCS2(=O)=O is -4.28

Sure, the documented cytotoxicity at 70.5 h for Cc1cc(CN2CCC3(CC2)COC(COc2ccccn2)C3)no1 (configuration not stated) is 43

Sure, the documented cytotoxicity at 70.5 h for CCc1csc(CCNC(=O)C2CC(=O)N(C(C)C)C2)n1 (configuration not stated) is 4.82

Sure, the documented cytotoxicity at 70.5 h for CC(CCc1ccccc1)N1CCC(C(=O)Nc2ccccn2)CC1 (configuration not stated) is 22

Sure, the documented cytotoxicity at 70.5 h for O=C(NC1CC1)N1CCOC2(CCCN(c3cccc(F)c3)C2)C1 (configuration not stated) is -3.8

Sure, the documented cytotoxicity at 70.5 h for CCOCc1cncc2c1CCN(C(=O)c1cscn1)C2 is -4.56

Sure, the documented cytotoxicity at 70.5 h for Cc1ccnc(NC(=O)C(C)Cn2cncn2)c1 (configuration not stated) is 13.8

Sure, the documented cytotoxicity at 70.5 h for O=C(CC1CNCCO1)N1CCC(c2cc(N3CCCC3)ncn2)CC1 (configuration not stated) is 12.3

Sure, the documented cytotoxicity at 70.5 h for Cn1cc(CN(C(=O)c2ccc(O)c(Cl)c2)C2CC2)cn1 is -14.8

Sure, the documented cytotoxicity at 70.5 h for Cc1[nH]nc(CCC(=O)N2CCc3ncnc(NCCO)c3CC2)c1C is -12.5

Sure, the documented cytotoxicity at 70.5 h for CNC(=O)CN1CCOCC12CCN(CCc1ccccc1)CC2 is -13.5

Sure, the documented cytotoxicity at 70.5 h for COCCN1CCC1c1cc(N)nc(C)n1 (configuration not stated) is -2.65

Sure, the documented cytotoxicity at 70.5 h for COc1cc(NC(=O)c2cccc(N(C)C)c2)cc(OC)c1 is -7.19

Sure, the documented cytotoxicity at 70.5 h for CC(C)c1nc2n(n1)CC(NCc1nnc(C3CC3)o1)CC2 (configuration not stated) is 0.876

Sure, the documented cytotoxicity at 70.5 h for CNC(=O)CN(C)C(=O)Cc1csc(C(C)C)n1 is 0.629

Sure, the documented cytotoxicity at 70.5 h for CN1CCN(S(=O)(=O)c2ccc3c(c2)CN(C(=O)C(C)(C)C)CC3)CC1 is -2.56

Sure, the documented cytotoxicity at 70.5 h for Cc1cnc(N(C)Cc2cnc3ccccc3n2)nc1N(C)C is -14.7

Sure, the documented cytotoxicity at 70.5 h for CCN1CCC(N2C[C@@H](C(=O)O)[C@H](c3cccc(OC)c3)C2)CC1 is -0.816

Sure, the documented cytotoxicity at 70.5 h for COc1cc(CNC2CCc3nc(C)nn3C2)cc2c1OCCO2 (configuration not stated) is -9

Sure, the documented cytotoxicity at 70.5 h for Cc1ccc(S(=O)(=O)n2ccc(C(=O)NCC(F)(F)F)c2)cc1 is 1.3

Sure, the documented cytotoxicity at 70.5 h for CCn1nc(C)c2nc(C(C)C)nc(NCCCn3ccnc3)c21 is -17.9

Sure, the documented cytotoxicity at 70.5 h for CN(C)CCN1CCC2(CCN(C(=O)c3cccc(F)c3)CC2)C1=O is 15.4

Sure, the documented cytotoxicity at 70.5 h for CC(C)NC(=O)c1nnn(-c2cccc(C(F)(F)F)c2)c1C1CC1 is 10.4
